- PROCEDURE SUMMARY: in vivo
- CONDITION DESCRIPTION: po
In this section, each of the molecules is paired with its reported LD50 at 24 h.
Numbers only here, please. The scale is mg/kg.

[[record]]
substance_smiles = "N=C(N)NC(=N)SCCO"
measured = 3280

[[record]]
substance_smiles = "N=C(N)NC(=N)SCc1ccccc1"
measured = 2420

[[record]]
substance_smiles = "C=CCSC(=NC)NC(=N)N"
measured = 600

[[record]]
substance_smiles = "C=CCSC(=NCC)NC(=N)N"
measured = 780

[[record]]
substance_smiles = "CC(C)SC(=N)NC(=N)N"
measured = 2260


GET /values?readout=LD50 at 24 h&item= C=CCSC(=NC1CCCCC1)NC(=N)N
450

GET /values?readout=LD50 at 24 h&item= C=CCN=C(NC(=N)N)SCC=C
380

----------
In this section, each of the compounds is paired with its reported LD50 at 24 h.
- PROCEDURE SUMMARY: in vivo
- CONDITION DESCRIPTION: po
Numbers only here, please. The scale is mg/kg.

Some solved cases for reference:
[[record]]
substance_smiles = "C=CCSC(=N)NC(=N)N"
measured = 2380

[[record]]
substance_smiles = "C=CCSC(=NC(C)C)NC(=N)N"
measured = 280

[[record]]
substance_smiles = "N=C(N)NC(=N)SCCCO"
measured = 2860


GET /values?readout=LD50 at 24 h&item= C=C(C)CSC(=N)NC(=N)N
1640

GET /values?readout=LD50 at 24 h&item= N=C(N)NC(=N)SCCCBr
980

GET /values?readout=LD50 at 24 h&item= CCCSC(=N)NC(=N)N
2800

GET /values?readout=LD50 at 24 h&item= N=C(N)NC(=N)SCCCCl
1210

----------
- PROCEDURE SUMMARY: in vivo
- CONDITION DESCRIPTION: ip
In this section, each of the compounds is paired with its reported LD50 at 24 h.
Numbers only here, please. The scale is mg/kg.

[[record]]
substance_smiles = "C=CCSC(=NC(C)C)NC(=N)N"
value_kind = "LD50 at 24 h"
measured = 32

[[record]]
substance_smiles = "N=C(N)NC(=N)SCCO"
value_kind = "LD50 at 24 h"
measured = 1680

[[record]]
substance_smiles = "C=CCSC(=NC)NC(=N)N"
value_kind = "LD50 at 24 h"
measured = 75

[[record]]
substance_smiles = "C=CCSC(=NCC)NC(=N)N"
value_kind = "LD50 at 24 h"
measured = 84


GET /values?readout=LD50 at 24 h&item= C=CCSC(=NC1CCCCC1)NC(=N)N
65

GET /values?readout=LD50 at 24 h&item= C=CCSC(=N)NC(=N)N
320

GET /values?readout=LD50 at 24 h&item= C=CCN=C(NC(=N)N)SCC=C
36

----------
- PROCEDURE SUMMARY: in vivo
- CONDITION DESCRIPTION: po
VALUE KIND: log10(LD50 at 24 h) (log10 of the value in mg/kg)
Scale: decimal log of LD50 at 24 h, LD50 at 24 h in mg/kg.

Some solved cases for reference:
[[record]]
substance_smiles = "CSC(=N)NC(=N)N"
value_kind = "log10(LD50 at 24 h)"
measured = 3.37

[[record]]
substance_smiles = "CC(C)CCSC(=N)NC(=N)N"
value_kind = "log10(LD50 at 24 h)"
measured = 3.35

[[record]]
substance_smiles = "C#CCSC(=N)NC(=N)N"
value_kind = "log10(LD50 at 24 h)"
measured = 1.95

[[record]]
substance_smiles = "CCCCSC(=N)NC(=N)N"
value_kind = "log10(LD50 at 24 h)"
measured = 3.43


Kindly consider the entry below.
GET /values?readout=log10(LD50 at 24 h)&item= CCSC(=N)NC(=N)N
3.49
